Consider the following MIC values measured on Septoria tritici (ATCC 26517).

molecule="N#Cc1ccc(CSc2ccc(C(F)(F)C(O)(Cn3ncnn3)c3ccc(F)cc3F)nc2)c(F)c1 (stereo not drawn)" measurement_type=MIC value_observed="1.5 to 4 µg/mL"
molecule="N#Cc1cc(Oc2ccc(C(F)(F)C(O)(Cn3cnnn3)c3ccc(F)cc3F)nc2)ccn1 (stereo not drawn)" measurement_type=MIC value_observed="1.5 to 4 µg/mL"

Now examine the next entry.
### Prompt Provide one value: measured MIC of N#Cc1ccc(COc2ccc(C(F)(F)C(O)(Cn3ncnn3)c3ccc(Cl)cc3F)nc2)nc1 (stereo not drawn)
### Response 1.5 to 4 µg/mL
